Reference source: the supplement of paper PMC8253809

System: HGGX6 (H3.3 G34R paediatric high-grade glioma line)
assay-info: growth inhibition (% activity, log2 RLU normalised to DMSO / staurosporine); higher = more growth inhibition
condition-set: 33 µM
growth inhibition listing for selected compounds.
Your answer is read as %, so omit the unit and give the number.

Examples with answers:
compound	target-or-system	growth inhibition [%]
CN(C)C/C=C/C(=O)Nc1cc2c(Nc3ccc(F)c(Cl)c3)ncnc2cc1O[C@H]1CCOC1	HGGX6	47.5
CC(C)(O)c1ccccc1CC[C@@H](SCC1(CC(=O)O)CC1)c1cccc(/C=C/c2ccc3ccc(Cl)cc3n2)c1	HGGX6	-2.63
CC(C)(OCc1nn(Cc2ccccc2)c2ccccc12)C(=O)O	HGGX6	-4.18

Q: Entry N#CC1(c2ccc(NC(=O)c3cccnc3NCc3ccncc3)cc2)CCCC1 : reported growth inhibition = ?
Ans: 4.45

Q: Can you handle CCN(CC)CCOCCOC(=O)C(CC)(CC)c1ccccc1 next?
Ans: 10.7

Q: Repeat for the following compound: Cc1onc(-c2ccccc2)c1-c1ccc(S(N)(=O)=O)cc1
Ans: 2.37

* * *

Test system: HGGX6
assay-info: growth inhibition (% activity, log2 RLU normalised to DMSO / staurosporine); higher = more growth inhibition
condition-set: 33 µM
# key: entry, value: growth inhibition
Write the answer as a number in %, unit excluded.

Use the examples below as a reference point.
> print(dat)
                                   compound       measure.name     val
1  CN(C)CC/C=C1/c2ccccc2COc2ccc(CC(=O)O)cc21  growth inhibition    2.49
2  CN1CCCCC1CCN1c2ccccc2Sc2ccc([S+](C)[O-])cc21 (stereo unspecified)  growth inhibition  -0.926
3              CCCCNc1ccc(C(=O)OCCN(C)C)cc1  growth inhibition     4.5
4  C=C1/C(=C\C=C2/CCC[C@]3(C)[C@@H]([C@H](C)/C=C/[C@H](C)C(C)C)CC[C@@H]23)C[C@@H](O)C[C@@H]1O  growth inhibition    2.65
5  CN(C(=O)CN(CCO)CC(=O)N(C)C(C)(C)Cc1ccccc1)C(C)(C)Cc1ccccc1  growth inhibition    2.56
6  Cc1ccc(O)c([C@H](CCN(C(C)C)C(C)C)c2ccccc2)c1  growth inhibition   -3.24

Q: Look up growth inhibition for this compound: CC(C)OC(=O)C(C)(C)Oc1ccc(C(=O)c2ccc(Cl)cc2)cc1
Ans: -3.05

Q: For CC1(C)O[C@@H]2[C@@H](CO[C@@]3(COS(N)(=O)=O)OC(C)(C)O[C@@H]23)O1 then?
Ans: -3.4

* * *

Test system: DIPGX29 (H3.3 K27M diffuse intrinsic pontine glioma line)
assay-info: growth inhibition (% activity, log2 RLU normalised to DMSO / staurosporine); higher = more growth inhibition
condition-set: 33 µM
measure-name: growth inhibition (%)
Note: unit % is implicit; provide only the numeric part.

Check out these entries, answers already filled in.
compound	val
Cc1onc(-c2ccccc2)c1-c1ccc(S(N)(=O)=O)cc1	0.8
O[C@@H]1CO[C@H]2[C@@H]1OC[C@@H]2O	-2.46
CCC[C@H](N[C@@H](C)C(=O)N1[C@H](C(=O)O)C[C@@H]2CCCC[C@@H]21)C(=O)OCC	1.9
C[C@H]1[C@H](NC(=O)/C(=N\OC(C)(C)C(=O)O)c2csc(N)n2)C(=O)N1S(=O)(=O)O	1.82

Q: Using the record for CC(=O)Oc1ccccc1C(=O)O , report its growth inhibition.
Ans: 0.978

Q: One more compound: CC1=C(C(=O)OC(C)C)C(c2cccc([N+](=O)[O-])c2)C(C(=O)OC2CN(C(c3ccccc3)c3ccccc3)C2)=C(N)N1 (configuration not stated)
Ans: 9.28

Q: Repeat for the following compound: CCCCCCCCCC(=O)N[C@@H](Cc1c[nH]c2ccccc12)C(=O)N[C@@H](CC(N)=O)C(=O)N[C@@H](CC(=O)O)C(=O)N[C@@H]1C(=O)NCC(=O)N[C@@H](CCCN)C(=O)N[C@@H](CC(=O)O)C(=O)N[C@H](C)C(=O)N[C@@H](CC(=O)O)C(=O)NCC(=O)N[C@H](CO)C(=O)N[C@@H]([C@H](C)CC(=O)O)C(=O)N[C@@H](CC(=O)c2ccccc2N)C(=O)O[C@@H]1C
Ans: -2.71
